# SYSTEM: CREB-binding protein/Histone acetyltransferase p300 (Homo sapiens, UniProt Q09472+Q92793)
# Sequence (Q09472 whole entry, looked up): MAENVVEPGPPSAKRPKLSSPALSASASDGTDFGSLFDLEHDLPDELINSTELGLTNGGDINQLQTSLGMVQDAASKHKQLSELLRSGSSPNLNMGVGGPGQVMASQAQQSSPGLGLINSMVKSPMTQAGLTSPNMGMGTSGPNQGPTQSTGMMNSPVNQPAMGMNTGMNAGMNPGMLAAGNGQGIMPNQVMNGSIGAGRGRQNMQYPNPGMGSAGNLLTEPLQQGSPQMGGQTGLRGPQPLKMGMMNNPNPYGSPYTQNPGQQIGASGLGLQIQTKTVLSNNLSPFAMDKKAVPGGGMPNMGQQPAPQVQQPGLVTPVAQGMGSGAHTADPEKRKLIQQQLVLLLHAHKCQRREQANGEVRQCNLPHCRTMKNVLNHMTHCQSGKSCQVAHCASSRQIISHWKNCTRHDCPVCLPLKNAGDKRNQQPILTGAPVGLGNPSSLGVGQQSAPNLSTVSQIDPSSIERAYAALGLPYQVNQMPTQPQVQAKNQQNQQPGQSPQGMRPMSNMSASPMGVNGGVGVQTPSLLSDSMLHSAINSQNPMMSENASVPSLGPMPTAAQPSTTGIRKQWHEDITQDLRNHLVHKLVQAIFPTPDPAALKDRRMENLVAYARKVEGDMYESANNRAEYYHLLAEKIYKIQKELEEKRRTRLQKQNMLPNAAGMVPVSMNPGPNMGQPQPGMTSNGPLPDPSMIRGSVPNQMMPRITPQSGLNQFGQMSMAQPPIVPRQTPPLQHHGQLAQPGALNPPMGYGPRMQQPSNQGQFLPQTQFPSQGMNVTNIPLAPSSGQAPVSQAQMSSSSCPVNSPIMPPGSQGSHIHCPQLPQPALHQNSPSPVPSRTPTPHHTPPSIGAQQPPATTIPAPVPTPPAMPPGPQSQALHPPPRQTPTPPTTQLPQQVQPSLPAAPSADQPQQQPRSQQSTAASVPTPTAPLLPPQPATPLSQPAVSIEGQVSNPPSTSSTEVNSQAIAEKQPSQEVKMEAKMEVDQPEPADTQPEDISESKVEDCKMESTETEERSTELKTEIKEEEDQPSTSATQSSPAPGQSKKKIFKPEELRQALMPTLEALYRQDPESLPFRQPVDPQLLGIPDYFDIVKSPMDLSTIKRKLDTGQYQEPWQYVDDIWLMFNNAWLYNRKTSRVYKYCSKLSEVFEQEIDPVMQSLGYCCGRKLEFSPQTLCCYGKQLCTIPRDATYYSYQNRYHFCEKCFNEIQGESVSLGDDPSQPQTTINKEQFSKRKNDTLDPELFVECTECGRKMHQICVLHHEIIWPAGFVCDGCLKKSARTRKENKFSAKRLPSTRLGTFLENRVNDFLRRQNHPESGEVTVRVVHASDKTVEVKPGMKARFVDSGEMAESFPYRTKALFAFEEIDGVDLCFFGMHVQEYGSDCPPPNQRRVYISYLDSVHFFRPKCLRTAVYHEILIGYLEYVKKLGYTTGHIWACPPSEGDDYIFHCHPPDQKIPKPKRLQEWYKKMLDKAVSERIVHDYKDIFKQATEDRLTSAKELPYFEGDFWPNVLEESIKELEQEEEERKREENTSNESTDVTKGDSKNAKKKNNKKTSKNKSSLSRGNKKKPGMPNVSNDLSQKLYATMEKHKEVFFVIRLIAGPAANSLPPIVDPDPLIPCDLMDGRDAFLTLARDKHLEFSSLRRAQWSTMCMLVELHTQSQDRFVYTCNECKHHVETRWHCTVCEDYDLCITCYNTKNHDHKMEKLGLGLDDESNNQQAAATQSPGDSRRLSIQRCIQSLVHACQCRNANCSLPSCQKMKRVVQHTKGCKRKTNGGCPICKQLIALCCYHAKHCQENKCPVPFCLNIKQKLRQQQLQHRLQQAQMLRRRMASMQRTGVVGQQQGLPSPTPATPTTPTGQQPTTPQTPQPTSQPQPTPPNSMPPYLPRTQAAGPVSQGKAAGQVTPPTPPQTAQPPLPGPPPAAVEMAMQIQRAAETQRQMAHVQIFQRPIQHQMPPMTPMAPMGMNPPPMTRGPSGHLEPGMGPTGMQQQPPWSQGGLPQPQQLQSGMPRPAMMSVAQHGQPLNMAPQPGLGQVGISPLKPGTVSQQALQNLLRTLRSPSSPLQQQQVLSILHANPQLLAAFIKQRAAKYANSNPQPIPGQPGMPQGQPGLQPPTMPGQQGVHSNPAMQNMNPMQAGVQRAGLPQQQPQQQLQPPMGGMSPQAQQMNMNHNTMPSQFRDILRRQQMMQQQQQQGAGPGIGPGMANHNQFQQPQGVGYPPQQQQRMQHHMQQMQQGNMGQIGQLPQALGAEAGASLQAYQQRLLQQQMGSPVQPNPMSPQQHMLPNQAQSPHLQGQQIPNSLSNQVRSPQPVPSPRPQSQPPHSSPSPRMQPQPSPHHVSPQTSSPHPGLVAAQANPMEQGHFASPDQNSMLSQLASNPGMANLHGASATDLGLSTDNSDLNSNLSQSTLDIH
# Sequence (Q92793 whole entry, looked up): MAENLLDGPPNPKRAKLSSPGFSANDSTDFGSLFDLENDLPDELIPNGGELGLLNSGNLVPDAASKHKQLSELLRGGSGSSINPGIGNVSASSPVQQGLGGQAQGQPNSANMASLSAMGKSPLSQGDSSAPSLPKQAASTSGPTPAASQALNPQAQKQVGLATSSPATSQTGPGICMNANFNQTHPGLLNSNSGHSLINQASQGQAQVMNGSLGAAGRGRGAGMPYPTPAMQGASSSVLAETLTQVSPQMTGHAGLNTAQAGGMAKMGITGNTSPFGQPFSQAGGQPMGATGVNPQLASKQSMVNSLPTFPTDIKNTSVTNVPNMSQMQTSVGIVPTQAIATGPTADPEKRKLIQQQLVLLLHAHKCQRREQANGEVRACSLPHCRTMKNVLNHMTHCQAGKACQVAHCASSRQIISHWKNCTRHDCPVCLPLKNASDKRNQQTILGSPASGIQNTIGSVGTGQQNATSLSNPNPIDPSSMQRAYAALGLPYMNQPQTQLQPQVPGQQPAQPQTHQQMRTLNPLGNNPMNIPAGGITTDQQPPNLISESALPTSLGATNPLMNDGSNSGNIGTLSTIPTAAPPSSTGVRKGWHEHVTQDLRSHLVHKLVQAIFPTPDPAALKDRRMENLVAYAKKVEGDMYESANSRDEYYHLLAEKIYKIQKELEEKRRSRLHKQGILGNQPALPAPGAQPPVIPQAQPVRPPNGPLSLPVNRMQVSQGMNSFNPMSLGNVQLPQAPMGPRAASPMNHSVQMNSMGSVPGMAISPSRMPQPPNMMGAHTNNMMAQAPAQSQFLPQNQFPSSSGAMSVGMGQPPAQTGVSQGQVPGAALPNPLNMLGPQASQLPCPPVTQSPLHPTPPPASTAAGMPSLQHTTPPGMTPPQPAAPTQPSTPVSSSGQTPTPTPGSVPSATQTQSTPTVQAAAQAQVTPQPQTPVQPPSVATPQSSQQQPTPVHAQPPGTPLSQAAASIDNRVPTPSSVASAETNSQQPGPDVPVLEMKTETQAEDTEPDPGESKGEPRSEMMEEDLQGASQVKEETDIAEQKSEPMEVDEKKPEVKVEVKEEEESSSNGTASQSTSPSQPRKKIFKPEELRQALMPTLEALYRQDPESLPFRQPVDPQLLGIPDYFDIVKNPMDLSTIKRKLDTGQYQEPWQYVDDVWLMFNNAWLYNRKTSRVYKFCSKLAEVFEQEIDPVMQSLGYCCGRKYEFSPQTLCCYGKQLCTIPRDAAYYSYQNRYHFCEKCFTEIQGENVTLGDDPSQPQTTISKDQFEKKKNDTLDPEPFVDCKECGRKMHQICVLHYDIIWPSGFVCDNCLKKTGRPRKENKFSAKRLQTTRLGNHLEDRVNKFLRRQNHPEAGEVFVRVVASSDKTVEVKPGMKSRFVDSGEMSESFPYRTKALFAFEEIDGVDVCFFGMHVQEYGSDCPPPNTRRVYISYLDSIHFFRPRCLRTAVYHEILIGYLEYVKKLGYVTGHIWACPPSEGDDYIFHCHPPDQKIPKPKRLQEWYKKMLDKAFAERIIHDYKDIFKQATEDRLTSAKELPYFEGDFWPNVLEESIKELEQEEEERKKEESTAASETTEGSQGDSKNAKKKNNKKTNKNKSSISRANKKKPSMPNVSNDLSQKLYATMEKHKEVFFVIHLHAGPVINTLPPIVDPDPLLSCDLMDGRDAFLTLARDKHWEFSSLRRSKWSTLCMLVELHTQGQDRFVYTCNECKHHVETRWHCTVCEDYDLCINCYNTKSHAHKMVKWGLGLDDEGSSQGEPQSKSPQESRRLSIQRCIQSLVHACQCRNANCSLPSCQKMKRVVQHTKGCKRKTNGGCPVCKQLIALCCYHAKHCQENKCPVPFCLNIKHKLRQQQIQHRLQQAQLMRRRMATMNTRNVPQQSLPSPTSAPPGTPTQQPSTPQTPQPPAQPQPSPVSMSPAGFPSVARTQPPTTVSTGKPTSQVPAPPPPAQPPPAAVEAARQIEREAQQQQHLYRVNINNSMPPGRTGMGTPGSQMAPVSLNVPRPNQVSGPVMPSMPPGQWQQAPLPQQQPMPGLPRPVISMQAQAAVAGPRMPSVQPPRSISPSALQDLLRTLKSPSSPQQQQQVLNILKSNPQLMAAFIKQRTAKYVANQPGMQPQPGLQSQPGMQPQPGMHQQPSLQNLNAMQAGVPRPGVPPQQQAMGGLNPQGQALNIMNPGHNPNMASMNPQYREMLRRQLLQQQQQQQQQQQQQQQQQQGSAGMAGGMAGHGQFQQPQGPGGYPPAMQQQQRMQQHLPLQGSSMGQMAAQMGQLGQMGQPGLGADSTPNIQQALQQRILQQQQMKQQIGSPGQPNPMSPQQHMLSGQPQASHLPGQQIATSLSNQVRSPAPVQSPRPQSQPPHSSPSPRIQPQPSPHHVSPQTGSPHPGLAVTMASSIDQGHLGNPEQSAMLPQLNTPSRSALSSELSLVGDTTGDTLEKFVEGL
# METHOD DESCRIPTION: Inhibition of human CBP/P300 expressed in Escherichia coli BL21(DE3)-R3 assessed as change in melting temperature at 10 uM by SYPRO orange dye-based differential scanning fluorimetry
PARAMETER: ΔTm (°C)

>>> numeric_result("COc1cccc(-c2cc(O)c3c(c2)CN(C(=O)C2CC2)CCO3)c1")
4.4

[P] CCNC(=O)Nc1cc(-c2cc3c(c(OC)c2)OCCN(C(=O)C2CC2)C3)ccc1C
[Q] O=C(C1CC1)N1CCOc2c(cc(-c3cccc(Cl)c3)cc2OCc2ccsc2)C1
[R] CCC(=O)N1CCOc2c(cc(-c3cc(OC)cc(OC)c3)cc2C(=O)N[C@@H]2CCCNC2)C1
[S] COc1cc(-c2cc3ccccc3s2)cc2c1OCCN(C(=O)C1CC1)C2
Incoming: Arrange the 4 molecules by rising ΔTm, starting with the smallest. Output the labels ranked as instructed.
Outgoing: Q, S, P, R

====

# SYSTEM: CREB-binding protein/Histone acetyltransferase p300 (Homo sapiens, UniProt Q09472+Q92793)
# METHOD DESCRIPTION: Inhibition of human CBP/P300 expressed in Escherichia coli BL21(DE3)-R3 assessed as change in melting temperature at 10 uM by SYPRO orange dye-based differential scanning fluorimetry
PARAMETER: ΔTm (°C)

[a] COc1cc(-c2ccc(C)c([N+](=O)[O-])c2)cc2c1OCCN(C(=O)C1CC1)C2
[b] COc1ccc(-c2cc3c(c(OC)c2)OCCN(C(=O)C(C)F)C3)cc1Cl (stereo not given)
[c] CCC(=O)N1CCOc2c(cc(-c3cccc(OC)c3)cc2OC)C1
[d] CCC(=O)N1CCOc2c(cc(-c3ccc(OC)c(OC)c3)cc2OCC2CCCN(C)C2)C1 (stereo not given)
Incoming: Which order do these fall in by ΔTm? Give them lowest to highest. Output the labels ranked as instructed.
Outgoing: b, a, c, d
(b: 0.5 °C, a: 3.4 °C, c: 5.4 °C, d: 7.8 °C)

====

# SYSTEM: Bromodomain-containing protein 4 (Homo sapiens)
# METHOD DESCRIPTION: Inhibition of human BRD4 bromodomain 1 expressed in Escherichia coli BL21(DE3)-R3-pRARE2 assessed as change in melting temperature at 10 uM by SYPRO orange dye-based differential scanning fluorimetry
PARAMETER: ΔTm (°C)

>>> numeric_result("CCC(=O)N1CCOc2c(cc(-c3cc(OC)cc(OC)c3)cc2C(=O)O)C1")
0.1
>>> numeric_result("CCC(=O)N1CCOc2c(cc(-c3nc4ccccc4s3)cc2OC2CCOC2)C1 (configuration not stated)")
0.8
>>> numeric_result("CCC(=O)N1CCSc2c(cc(-c3ccc(OC)c(OC)c3)cc2OC)C1")
3.1
>>> numeric_result("COc1ccc(Cl)cc1-c1cc2c(c(OC)c1)OCCN(C(=O)C1CC1)C2")
-0.6
>>> numeric_result("CCC(=O)N1CCOc2c(cc(-c3ccc(OC)c(OC)c3)cc2C(=O)NCCN2CCCCC2)C1")
0.6
>>> numeric_result("COc1cc(C(C)=O)cc2c1OCCN(C(=O)C1CC1)C2")
0.1

[a] COc1cc(-c2ccc(C)c(N)c2)cc2c1OCCN(C(=O)C1CC1)C2
[b] CCC(=O)N1CCOc2c(cc(-c3cc(OC)cc(OC)c3)cc2C(=O)N[C@H]2CCCNC2)C1
[c] COc1cccc(-c2cc3c(c(OCCCN(C)C)c2)OCCN(C(=O)C2CC2)C3)c1
[d] COc1ccc(Cl)cc1-c1cc2c(c(OC)c1)OCCN(C(=O)C1CCCO1)C2 (configuration not stated)
Incoming: Sort by ΔTm, descending. Output the labels ranked as instructed.
Outgoing: a, c, b, d
(a: 2.5 °C, c: 1.2 °C, b: 0.8 °C, d: 0 °C)

[a] COc1cc(-c2csc(N)n2)cc2c1OCCN(C(=O)C1CC1)C2
[b] COc1ccc(-c2cc3c(c(OC)c2)OCCN(C(=O)CC(F)(F)F)C3)cc1Cl
[c] COC(=O)N1CCOc2c(cc(-c3ccc(OC)c(Cl)c3)cc2OC)C1
Incoming: Sort by ΔTm, descending. Output the labels ranked as instructed.
Outgoing: c, a, b

[P] Cc1ccc(-c2cc3c(c(OCC4CCCN(C)C4)c2)OCCN(C(=O)C2CC2)C3)s1 (configuration not stated)
[Q] COc1cccc(-c2cc3c(c(OC)c2)OCCN(C(=O)C2CC2)C3)c1
Incoming: Hi, I'm comparing two records. Which one has the lower ΔTm, P or Q ? Respond with the label that goes with your answer.
Outgoing: P

====

# SYSTEM: CREB-binding protein/Histone acetyltransferase p300 (Homo sapiens, UniProt Q09472+Q92793)
# METHOD DESCRIPTION: Inhibition of human CBP/P300 expressed in Escherichia coli BL21(DE3)-R3 assessed as change in melting temperature at 10 uM by SYPRO orange dye-based differential scanning fluorimetry
PARAMETER: ΔTm (°C)

Completed entries (count: 3):
>>> numeric_result("COc1ccc(Cl)cc1-c1cc2c(c(OC)c1)OCCN(C(=O)C1CC1)C2")
4.4
>>> numeric_result("COc1cc(-c2ccc(C)cc2)cc2c1OCCN(C(=O)C(C)C)C2")
0.7
>>> numeric_result("COc1cc(-c2ccc(C)cc2)cc2c1OCCN(C(=O)C1CC1)C2")
3.3

[P] COc1ccc(-c2cc3c(c(OC)c2)OCCN(C(=O)C2CC2)C3)cc1OC
[Q] COc1ccc(Cl)cc1-c1cc2c(c(OC)c1)OCCN(C(=O)C1CCC1)C2
[R] COc1ccc(-c2cc3c(c(OC)c2)SCCN(C(=O)C2CC2)C3)cc1OC
[S] CCC(CC)C(=O)N1CCOc2c(cc(-c3ccccc3OC)cc2OC)C1
Incoming: Sort by ΔTm, descending. Output the labels ranked as instructed.
Outgoing: P, R, Q, S
(P: 4.6 °C, R: 3 °C, Q: 0.9 °C, S: 0.1 °C)

====

# SYSTEM: CREB-binding protein/Histone acetyltransferase p300 (Homo sapiens, UniProt Q09472+Q92793)
# METHOD DESCRIPTION: Inhibition of human CBP/P300 expressed in Escherichia coli BL21(DE3)-R3 assessed as change in melting temperature at 10 uM by SYPRO orange dye-based differential scanning fluorimetry
PARAMETER: ΔTm (°C)

Completed entries (count: 2):
>>> numeric_result("COc1cc(-c2cccc(Cl)c2)cc2c1OCCN(C(=O)C1CCC1)C2")
0.3
>>> numeric_result("CCC(=O)N1CCOc2c(cc(-c3cccc(Cl)c3)cc2OCC2CCCCO2)C1 (stereo not given)")
4.1

[a] CCC(=O)N1CCOc2c(cc(-c3ccc(OC)c(Cl)c3)cc2OC)C1
[b] O=C(C1CC1)N1CCOc2c(cc(-c3cccc(Cl)c3)cc2OCC2CCCCO2)C1 (stereo not given)
Incoming: // compare measured ΔTm, left a , right b , return larger Respond with the label that goes with your answer.
Outgoing: a
(a: 6 °C, b: 2.6 °C)

====

# SYSTEM: Bromodomain-containing protein 4 (Homo sapiens)
# METHOD DESCRIPTION: Inhibition of human BRD4 bromodomain 1 expressed in Escherichia coli BL21(DE3)-R3-pRARE2 assessed as change in melting temperature at 10 uM by SYPRO orange dye-based differential scanning fluorimetry
PARAMETER: ΔTm (°C)

Completed entries (count: 6):
>>> numeric_result("COc1cccc(-c2cc3c(c(OC)c2)OCCN(C(=O)C2CCC2)C3)c1")
1.2
>>> numeric_result("CCC(=O)N1CCOc2c(cc(-c3ccc(OC)c(OC)c3)cc2C(=O)O)C1")
0.1
>>> numeric_result("COc1cccc(-c2cc3c(c(OCC4CCN(C)C4)c2)OCCN(C(=O)C2CC2)C3)c1 (stereo unspecified)")
0.8
>>> numeric_result("COc1ccc(-c2cc3c(c(OC)c2)OCCN(C(=O)C2CC2)C3)cc1C")
3
>>> numeric_result("CNC(=S)N1CCOc2c(cc(-c3ccc(OC)c(Cl)c3)cc2OC)C1")
2.6
>>> numeric_result("CCC(=O)N1CCOc2c(cc(-c3ccc(OC)c(OC)c3)cc2C(=O)OC)C1")
1.8

[A] COc1cccc(-c2cc3c(c(OC4CCN(C)C4)c2)OCCN(C(=O)C2CC2)C3)c1 (stereo unspecified)
[B] O=C(C1CC1)N1CCOc2c(cc(-c3cccc(Cl)c3)cc2OCC2CCCCO2)C1 (stereo unspecified)
Incoming: // compare measured ΔTm, left A , right B , return larger Respond with the label that goes with your answer.
Outgoing: A
(A: 2.7 °C, B: -0.1 °C)

[I] CCS(=O)(=O)Nc1cc(-c2cc3c(c(OC)c2)OCCN(C(=O)C2CC2)C3)ccc1C
[II] COCC(=O)N1CCOc2c(cc(-c3cccc(OC)c3)cc2OC)C1
Incoming: Hi, I'm comparing two records. Which one has the lower ΔTm, I or II ? Respond with the label that goes with your answer.
Outgoing: II

Entry source: ChEMBL document CHEMBL3862003
